tgt: PRKCH (human) (UniProt P24723)
Sequence (P24723 whole entry, looked up): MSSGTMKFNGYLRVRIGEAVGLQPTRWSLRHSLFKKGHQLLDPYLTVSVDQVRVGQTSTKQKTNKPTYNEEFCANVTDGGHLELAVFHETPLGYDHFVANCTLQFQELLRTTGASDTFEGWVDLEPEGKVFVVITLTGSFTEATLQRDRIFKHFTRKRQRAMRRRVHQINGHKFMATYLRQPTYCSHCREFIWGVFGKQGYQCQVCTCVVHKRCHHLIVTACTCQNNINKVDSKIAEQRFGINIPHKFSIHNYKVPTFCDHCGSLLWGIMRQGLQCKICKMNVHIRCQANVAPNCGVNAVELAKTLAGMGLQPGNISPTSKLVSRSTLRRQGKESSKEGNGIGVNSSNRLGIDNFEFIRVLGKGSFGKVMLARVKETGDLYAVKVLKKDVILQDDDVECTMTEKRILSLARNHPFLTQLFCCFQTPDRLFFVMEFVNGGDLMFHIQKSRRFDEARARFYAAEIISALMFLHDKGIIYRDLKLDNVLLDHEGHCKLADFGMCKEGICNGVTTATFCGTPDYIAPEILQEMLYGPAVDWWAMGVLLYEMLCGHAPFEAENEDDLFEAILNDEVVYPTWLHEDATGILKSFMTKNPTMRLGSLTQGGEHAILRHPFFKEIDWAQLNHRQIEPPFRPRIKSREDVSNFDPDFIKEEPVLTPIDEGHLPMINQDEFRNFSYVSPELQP
protocolNotes: split-luciferase competition binding
experimentalSetup: compound 10.0 µM
property: inhibition (%)

> print(dat)
                                    compound  endpointunit  testresult
 1  CC[C@@H](CO)Nc1nc(NCc2ccccc2)c2ncn(C(C)C)c2n1             %           0
 2  N#CC(=C(\N)Sc1ccccc1N)/C(C#N)=C(/N)Sc1ccccc1N             %           0
 3  O=C1NC(=O)c2c1c1c3ccccc3n3c1c1c2c2ccccc2n1C1CCC3O1             %          78
 4  Cn1cc(C2=C(c3ccc(Cl)cc3Cl)C(=O)NC2=O)c2ccccc21             %           0
 5  N#C/C(=C(/N)Sc1ccc(N)cc1)c1ccccc1C(F)(F)F             %           0
 6  CC(C)[C@H](CO)Nc1nc(Nc2cc(N)cc(Cl)c2)c2ncn(C(C)C)c2n1             %          10
 7  Cc1cc(F)c(Nc2ncnc3cc(OCc4ccccc4)ccc23)cc1O             %           0
 8  O=C(NC(NC(=S)Nc1ccc(F)c([N+](=O)[O-])c1)C(Cl)(Cl)Cl)C(c1ccccc1)c1ccccc1 (stereo not given)             %           7
 9                    C=CC(=O)c1ccc2ccccc2c1             %           0
10        NC(=O)Nc1sc(-c2ccc(F)cc2)cc1C(N)=O             %          56

(I) CS(=O)c1ccc(-c2nc(-c3ccc(F)cc3)c(-c3ccncc3)[nH]2)cc1 (stereo not given)
(II) O=S(=O)(c1cccc2c(Cl)cccc12)N1CCCNCC1
(III) Nc1ncnc2[nH]nc(Nc3ccc(F)cc3)c12
(IV) Cc1ccc(-c2nn(C(C)(C)C)c3ncnc(N)c23)cc1
(V) Cn1cc(C2=C(c3cn(CCCSC(=N)N)c4ccccc34)C(=O)NC2=O)c2ccccc21
Order by inhibition, ascending. Give the order by naming the labels one after another as requested. II, I, IV, III, V
(II: 0%, I: 5%, IV: 8%, III: 13%, V: 81%)

(1) O=S(=O)(c1cccc2c(O)nccc12)N1CCCNCC1
(2) Cc1[nH]c(/C=C2\C(=O)Nc3ccc(S(=O)(=O)Cc4c(Cl)cccc4Cl)cc32)c(C)c1C(=O)N1CCC[C@@H]1CN1CCCC1
(3) CS(=O)(=O)CCNCc1nc(-c2ccc3ncnc(Nc4ccc(OCc5cccc(F)c5)c(Cl)c4)c3c2)cs1
Arrange the 3 entries by inhibition so the values rise. I'd appreciate it if you listed the labels in the requested order. 1, 3, 2

(I) COc1cc(CC2C(=O)OC[C@@H]2Cc2ccc(OC)c(OC)c2)ccc1O (stereo not given in full)
(II) NC(=O)c1sc(-c2ccsc2)cc1N
Form field 'greater inhibition' accepts I or II ; which applies? I would appreciate it if you answered with the label of your choice. II

(P) COc1cc2ncn(-c3cc(OCc4ccccc4C(F)(F)F)c(C(N)=O)s3)c2cc1OC
(Q) COc1cc2ncnc(Nc3ccc(Cl)cc3F)c2cc1OC
I would appreciate it if you could say which entry, P or Q , has the lower inhibition value. When you have decided, please share the label of that item. P

(I) Cn1cnc2c(NCc3ccccc3)nc(NCCO)nc21
(II) CC(C)(C)n1nc(-c2cccc3ccccc23)c2c(N)ncnc21
(III) Fc1ccc(Cl)cc1-c1nc(Nc2ccncc2)c2nccnc2n1
# sort list by recorded inhibition, greatest to least Arrange the labels as the request states and list them. III, II, I

(I) c1ccc(-c2n[nH]cc2-c2ccnc3ccccc23)nc1
(II) O=C1Nc2ccc(I)cc2/C1=C/c1cc(Br)c(O)c(Br)c1
Which item exceeds the other in inhibition, I or II ? Answer = label. II
(II: 10%, I: 0%)

(a) CC(C)[C@H](CO)Nc1nc(Nc2cccc(Cl)c2)c2ncn(C(C)C)c2n1
(b) O=C(Nc1cc(C(F)(F)F)cc(C(F)(F)F)c1)c1cc(Cl)ccc1O
I would appreciate it if you could say which entry, a or b , has the lower inhibition value. State the label of the item chosen. a
